Molecular target: PaIspD (Pseudomonas aeruginosa)
Construct: His6 (N, cleaved yes); made in house; host or cells: Escherichia coli BL21 (DE3), pET28
Assay: Microscale thermophoresis (MST) with dyed PaIspD
Type: binding
Conditions: supplement sheet, CORRECTED VALUES
Protocol: The microscale thermophoresis (MST) (Serial no. 201709-BR-N024, Monolith NT.115 Micro Scale Thermophoresis, NanoTemper Technologies GmbH.) was performed using dyed PaIspD, labeled according to the standard protocol from the manufacturer NanoTemper Technologies GmbH Protein Labeling Kit Red-NHS, 2nd Generation. A 2 mM ligand solution containing 10% DMSO was prepared (Solution I). […] Each sample was measured and analyzed in MO Control version 1.6.
# LE values compiled below
PROPERTY NAME: LE

{"columns": ["COMPOUND", "RECORDED RESULT"],
 "data": [
  ["CCC(CC)C(=O)N(C)C1c2cccnc2C(=O)N1C (stereo not drawn)", 0.2241],
  ["CN1C(=O)c2ncccc2C1N(C)C(=O)N1CCOCC1 (stereo not drawn)", 0.2363],
  ["O=C1c2ncccc2CN1CCN1CCOCC1", 0.2518],
  ["O=C1c2ncccc2CN1Cc1ccccc1", 0.3124],
  ["CN(C(=O)c1ccncc1)C1c2cccnc2C(=O)N1C (stereo not drawn)", 0.2401],
  ["O=C1c2ncccc2CN1CCc1c[nH]c2ccccc12", 0.2402]
]}

---

# Kd values compiled below
molecular target: PaIspD (Pseudomonas aeruginosa); construct: His6 (N, cleaved yes); made in house; host or cells: Escherichia coli BL21 (DE3), pET28; assay: Microscale thermophoresis (MST) with dyed PaIspD; format: binding; conditions: -log KD, supplement sheet, CORRECTED VALUES
PROPERTY NAME: Kd (µM)

{"columns": ["COMPOUND", "OUTPUT UNIT", "RECORDED RESULT"],
 "data": [
  ["CN1CCC(N2Cc3cccnc3C2=O)CC1", "µM", 186],
  ["O=C1c2ncccc2CN1Cc1ccccc1", "µM", 133],
  ["CN1Cc2cccnc2C1=O", "µM", 939],
  ["COC(=O)N(C)C1c2cccnc2C(=O)N1C (stereo not shown)", "µM", 454],
  ["O=C1c2ncccc2CN1CCc1c[nH]c2ccccc12", "µM", 208],
  ["O=C1c2ncccc2CN1CCN1CCOCC1", "µM", 491],
  ["CN1C(=O)c2ncccc2C1N(C)C(=O)N1CCOCC1 (stereo not shown)", "µM", 239],
  ["CN(C(=O)c1ccncc1)C1c2cccnc2C(=O)N1C (stereo not shown)", "µM", 209],
  ["CCC(CC)C(=O)N(C)C1c2cccnc2C(=O)N1C (stereo not shown)", "µM", 536],
  ["CN(C(=O)c1ccon1)C1c2cccnc2C(=O)N1C (stereo not shown)", "µM", 502]
]}

---

Target: PaIspD (Pseudomonas aeruginosa)
Construct: His6 (N, cleaved yes); made in house; host or cells: Escherichia coli BL21 (DE3), pET28
Sequence (P57707 1-234): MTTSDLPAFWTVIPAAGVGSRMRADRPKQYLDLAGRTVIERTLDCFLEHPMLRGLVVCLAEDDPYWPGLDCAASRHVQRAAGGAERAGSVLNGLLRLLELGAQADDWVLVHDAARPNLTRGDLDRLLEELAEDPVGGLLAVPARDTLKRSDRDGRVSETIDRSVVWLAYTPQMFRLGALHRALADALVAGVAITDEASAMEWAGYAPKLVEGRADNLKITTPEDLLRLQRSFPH
Test: Microscale thermophoresis (MST) with dyed PaIspD
Assay type: binding
Settings: kd (µM), supplement sheet, CORRECTED VALUES; MST Kd
# Kd values compiled below

{"columns": ["MOLECULE", "Kd [µM]"],
 "data": [
  ["CN(C(=O)c1ccon1)C1c2cccnc2C(=O)N1C (stereo not drawn) [Compound 11]", 502],
  ["CN(C(=O)c1ccncc1)C1c2cccnc2C(=O)N1C (stereo not drawn) [Compound 10]", 209],
  ["COC(=O)N(C)C1c2cccnc2C(=O)N1C (stereo not drawn) [Compound 7]", 454],
  ["O=C1c2ncccc2CN1CCN1CCOCC1 [Compound 5]", 491],
  ["CCC(CC)C(=O)N(C)C1c2cccnc2C(=O)N1C (stereo not drawn) [Compound 9]", 536],
  ["O=C1c2ncccc2CN1CCc1c[nH]c2ccccc12 [Compound 6]", 208]
]}

Values compiled from paper PMC11796317.
